Each recorded value in this set is attributed to PubChem BioAssay (NCI).

# Tested on: SK-MEL-5 melanoma
# protocolDetails: NCI tumour cell line growth inhibition, 48 h
Parameter TGI: see the listing below.

Consider Cc1ccc2c(=O)cc(-c3cccc(F)c3)[nH]c2n1 . Its measured TGI is 2.16 µM

Consider CCCCCCCCCCOc1ccc(N=Nc2nnc(-c3ccc(OCCCCC)cc3)s2)cc1 . Its measured TGI is > 100 µM

====

# Tested on: SN12C renal
# protocolDetails: NCI tumour cell line growth inhibition, 48 h
observationType: TGI

O=S(=O)(O)c1cc(N=[N+]([O-])c2ccc(N=Nc3ccccc3)cc2S(=O)(=O)O)ccc1/C=C/c1ccc(N=[N+]([O-])c2ccc(N=Nc3ccccc3)cc2S(=O)(=O)O)cc1S(=O)(=O)O
> 100 µM
C1CC[N-]CC1.CC(=N\O)/C(C)=N/O.CC(=N\O)/C(C)=N/O.C[CH-]C(C)O.[Co+2]
> 100 µM
COC(=O)C(=O)C(C#N)c1c(Cl)cccc1Cl (centres undefined)
> 100 µM
Cc1oc2nc(N(C)C)n3cnnc3c2c1C
> 100 µM
CCCCCC/C(CC(=O)CCC(=O)NCCc1ccccc1)=N\Nc1ccc([N+](=O)[O-])cc1[N+](=O)[O-]
> 100 µM
COc1ccc2c(c1)[nH]c1c3ccc(OC)cc3oc(=O)c21
> 100 µM
CCSc1nc(N)c2cnn(CC)c2n1
26.1 µM
C#C[C@@H](CCCC)OC(=O)N[C@H](C)c1ccccc1
> 100 µM
CCCCCCCCc1cc(O)ccc1O
27.4 µM
N#CC(C#N)C(c1ccccc1)c1ccccc1
> 100 µM

Consider c1ccc(OCc2nnc(CCCCCCCCc3nnc(COc4ccccc4)o3)o2)cc1 . Its measured TGI is > 100 µM

Consider COc1ccc(/C=C/C(=O)c2ccc(Nc3nc(Nc4ccc(F)cc4)nc(Nc4ccc(F)cc4)n3)cc2)cc1 . Its measured TGI is > 100 µM

Consider COc1cc(-c2nc(SC)nc3c2CCc2ccccc2-3)cc(OC)c1OC . Its measured TGI is > 100 µM

Consider CC1CN=C(c2ccc(CN3CCC(CCCC4CCN(Cc5ccc(C6=NCC(C)N6)cc5)CC4)CC3)cc2)N1 (centres undefined) . Its measured TGI is > 100 µM

Consider CC[C@@H](C(=O)[C@@H](C)[C@@H](O)[C@H](C)[C@@H]1O[C@@H]([C@@H](CC)C(=O)O)CC[C@@H]1C)[C@H]1O[C@]2(C=C[C@@H](O)[C@]3(CC[C@@](C)([C@H]4CC[C@](O)(CC)[C@H](C)O4)O3)O2)[C@H](C)C[C@@H]1C . Its measured TGI is 44.8 µM

Consider CNc1nc(-c2ccc3c(N)n[nH]c3c2)cc(N2C[C@@H](C(=O)NC3CCCCC3)CC[C@H]2C)n1 . Its measured TGI is 20.2 µM

Consider Cn1cc(-c2csc(-c3cn(C(=O)OC(C)(C)C)c4ccccc34)n2)c2cccnc21 . Its measured TGI is 21.6 µM

Consider COc1ccc(C2=Nc3c(nc(SC)[nH]c3=O)NC(c3ccccc3)C2)cc1 (centres undefined) . Its measured TGI is 47.2 µM

Consider O=C(N/C(=C\c1ccc(F)cc1)c1nc2ccccc2[nH]1)c1ccccc1 . Its measured TGI is > 100 µM
